# Test system: Bacillus subtilis
# Measurement protocol: Antibacterial activity against Bacillus subtilis ATCC 6051 assessed as reduction in bacterial growth incubated for 18 to 24 hrs by broth microdilution method
# Format: functional
MIC: recorded values

Compound structure	Tgt	Unit of measure	MIC
CN(C)c1ccc2c(CC(=O)NCc3cn(CCCN4CCN(c5cc6c(cc5F)c(=O)c(C(=O)O)cn6C5CC5)CC4)nn3)cc(=O)oc2c1	Bacillus subtilis	µg/mL	4
O=C(O)c1cn(C2CC2)c2cc(N3CCN(CCCn4cc(CNc5ccc([N+](=O)[O-])c6nonc56)nn4)CC3)c(F)cc2c1=O	Bacillus subtilis	µg/mL	8

###

# Tested on: Acinetobacter baumannii
# Measurement protocol: Antibacterial activity against Acinetobacter baumannii ATCC 19606 assessed as reduction in bacterial growth incubated for 18 to 24 hrs by broth microdilution method
# Format: functional
# Applied conditions: ATCC 19606 = CIP 70.34 = JCM 6841
MIC: recorded values
Property: MIC

Compound	Observed
CN(C)c1ccc2c(CC(=O)NCc3cn(CCCN4CCN(c5cc6c(cc5F)c(=O)c(C(=O)O)cn6C5CC5)CC4)nn3)cc(=O)oc2c1	32 µg/mL
O=C(O)c1cn(C2CC2)c2cc(N3CCNCC3)c(F)cc2c1=O [CIPROFLOXACIN]	0.5 to 1 µg/mL
O=C(O)c1cn(C2CC2)c2cc(N3CCN(CCCn4cc(CNc5ccc([N+](=O)[O-])c6nonc56)nn4)CC3)c(F)cc2c1=O	32 to 64 µg/mL
[N-]=[N+]=NCCCN1CCN(c2cc3c(cc2F)c(=O)c(C(=O)O)cn3C2CC2)CC1	0.25 to 0.5 µg/mL
